- assay.target: β-secretase(BACE) (Homo sapiens)
- Construct: purchased Panvera
- Sequence (P56817 46-501): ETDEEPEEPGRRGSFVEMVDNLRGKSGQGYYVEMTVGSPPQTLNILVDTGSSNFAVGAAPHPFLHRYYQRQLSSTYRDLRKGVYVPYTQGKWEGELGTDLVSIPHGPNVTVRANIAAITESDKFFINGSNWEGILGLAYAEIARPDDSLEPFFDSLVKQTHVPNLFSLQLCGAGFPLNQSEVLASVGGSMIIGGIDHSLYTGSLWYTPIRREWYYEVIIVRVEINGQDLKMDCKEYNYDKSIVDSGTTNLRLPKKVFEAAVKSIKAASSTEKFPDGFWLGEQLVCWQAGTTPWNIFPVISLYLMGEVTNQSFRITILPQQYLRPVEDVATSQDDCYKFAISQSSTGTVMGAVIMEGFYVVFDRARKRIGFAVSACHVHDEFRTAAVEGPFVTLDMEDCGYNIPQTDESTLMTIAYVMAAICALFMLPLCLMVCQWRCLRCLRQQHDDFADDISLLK
- assay.info: BACE FS1% Inhibition Assay
- Format: biochemical
- measurement.parameters: 3 μM test compound; FS1 substrate; read-out: % Inhibition (FS) 3 μM
measured.parameter: inhibition at 3 µM (%)

Before answering, review these 6 worked examples.
>  <compound>
COc1cccc(Oc2ccc3c(c2)CN(Cc2cccc(C(=O)N(C)C4CCCCC4)c2)C(N)=N3)c1

>  <assay.target>
β-secretase(BACE) (Homo sapiens)

>  <inhibition at 3 µM [%]>
83

$$$$
>  <compound>
NC1=Nc2ccc(-c3ccccc3F)cc2CN1CCC(=O)NC1C2CC3CC(C2)CC1C3 (centres unmarked)

>  <assay.target>
β-secretase(BACE) (Homo sapiens)

>  <inhibition at 3 µM [%]>
119

$$$$
>  <compound>
CN(C(=O)CCC(c1ccccc1)N1Cc2cc(Oc3ccccc3)ccc2N=C1N)C1CCCCC1 (centres unmarked)

>  <assay.target>
β-secretase(BACE) (Homo sapiens)

>  <inhibition at 3 µM [%]>
79

$$$$
>  <compound>
Cc1noc(C)c1-c1ccc2c(c1)CN(Cc1cccc(C(=O)N(C)C3CCCCC3)c1)C(N)=N2

>  <assay.target>
β-secretase(BACE) (Homo sapiens)

>  <inhibition at 3 µM [%]>
92

$$$$
>  <compound>
CN(C(=O)c1cccc(CN2Cc3cc(Nc4ccccc4)ccc3N=C2N)c1)C1CCCCC1

>  <assay.target>
β-secretase(BACE) (Homo sapiens)

>  <inhibition at 3 µM [%]>
84

$$$$
>  <compound>
NC1=Nc2ccc(-c3c(F)cccc3F)cc2CN1CCNC(=O)C1CCCCC1

>  <assay.target>
β-secretase(BACE) (Homo sapiens)

>  <inhibition at 3 µM [%]>
102

$$$$

A. CC(C)OC(=O)NCCN1Cc2cc(Oc3ccccc3)ccc2N=C1N
B. NC1=Nc2ccc(Oc3ccccc3)cc2CN1CCNC(=O)C1CC1
Request: Please indicate which has the smaller reported inhibition at 3 µM: A , or B . Give the label under which the chosen entry appears.
Response: B
